# targetDesc: PLL3 (Photorhabdus laumondii subsp. laumondii)
# Sequence (Q7N8I7 entry or part of it): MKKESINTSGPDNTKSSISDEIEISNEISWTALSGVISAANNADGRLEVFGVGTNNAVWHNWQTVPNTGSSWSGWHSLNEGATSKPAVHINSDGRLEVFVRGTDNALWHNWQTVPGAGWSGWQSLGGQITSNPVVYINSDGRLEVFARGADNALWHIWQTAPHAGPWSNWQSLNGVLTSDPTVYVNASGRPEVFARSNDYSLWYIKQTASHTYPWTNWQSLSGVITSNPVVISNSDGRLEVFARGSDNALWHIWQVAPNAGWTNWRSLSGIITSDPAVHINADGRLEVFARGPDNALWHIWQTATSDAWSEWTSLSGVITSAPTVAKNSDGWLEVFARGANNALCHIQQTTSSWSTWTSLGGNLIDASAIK
# testName: Isothermal titration calorimetry (ITC)
# Type: binding
# recordedConditions: KD, stoichiometry fixed to 4, 25 °C
pKd: −log10 of the molar value.
propertyLabel: pKd

- O=C[C@H](O)[C@@H](O)[C@@H](O)[C@H](O)CO: 2.57

----------
# targetDesc: PLL3 (Photorhabdus laumondii subsp. laumondii)
# testName: SPR inhibition test on immobilized OMeDis
# Format: binding
pIC50: −log10 of the molar value.
Attribute: pIC50
propertyLabel: pIC50

- CO[C@@H]([C@H](O)[C@H](O)CO)[C@@H](O)C=O: 1.58
- C[C@H](O)[C@@H](O)[C@@H](O)[C@H](O)C=O: 2.60
